Reported % Blocking values are given for each entry in this list.
molecular target: T1, human chemokine (C-C motif) receptor 8 (CCR8) (human, UniProt P51685 1-355); test: flow cytometry blocking, PBMC CCR8+ CD4+ cells; competitor PE-AB12 (its MFI is read)
T1 construct: On human peripheral blood lymphocytes / PBMC (native) or on human CCR8 GFP-transfected Ba/F3 cells; also called hCCR8; human CCR8
T1 sequence (P51685 whole entry): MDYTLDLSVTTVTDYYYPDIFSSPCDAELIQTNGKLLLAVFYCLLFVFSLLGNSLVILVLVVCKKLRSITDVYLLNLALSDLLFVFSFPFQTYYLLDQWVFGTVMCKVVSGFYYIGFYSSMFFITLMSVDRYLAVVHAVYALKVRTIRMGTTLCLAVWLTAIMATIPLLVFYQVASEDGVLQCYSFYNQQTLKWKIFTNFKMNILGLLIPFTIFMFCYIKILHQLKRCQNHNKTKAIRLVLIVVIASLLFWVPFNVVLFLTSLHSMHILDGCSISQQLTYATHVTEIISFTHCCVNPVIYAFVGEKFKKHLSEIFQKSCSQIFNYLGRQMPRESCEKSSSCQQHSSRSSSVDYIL

Guide cases for % Blocking, answers given:
AB8 (antibody, V domains shown, Hybridoma monoclonal; also called antibody 8; clone 8) VH: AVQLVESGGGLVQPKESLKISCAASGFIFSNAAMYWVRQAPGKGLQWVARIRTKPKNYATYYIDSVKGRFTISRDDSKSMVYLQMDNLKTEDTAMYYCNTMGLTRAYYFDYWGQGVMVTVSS VL: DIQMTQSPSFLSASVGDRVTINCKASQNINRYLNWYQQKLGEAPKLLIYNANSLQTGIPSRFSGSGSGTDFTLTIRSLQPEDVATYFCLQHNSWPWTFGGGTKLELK ... 20.8%
AB10 (antibody, V domains shown, Hybridoma monoclonal; also called antibody 10; clone 10) VH: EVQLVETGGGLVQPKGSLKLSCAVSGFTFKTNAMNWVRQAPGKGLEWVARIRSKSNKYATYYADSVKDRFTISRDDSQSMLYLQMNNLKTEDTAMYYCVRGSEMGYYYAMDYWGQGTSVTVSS VL: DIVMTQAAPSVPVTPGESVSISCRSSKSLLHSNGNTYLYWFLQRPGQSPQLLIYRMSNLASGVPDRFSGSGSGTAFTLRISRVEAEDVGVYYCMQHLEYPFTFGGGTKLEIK ... -21.6%
AB12 (antibody, V domains shown, Hybridoma monoclonal; also called antibody 12; clone 12) VH: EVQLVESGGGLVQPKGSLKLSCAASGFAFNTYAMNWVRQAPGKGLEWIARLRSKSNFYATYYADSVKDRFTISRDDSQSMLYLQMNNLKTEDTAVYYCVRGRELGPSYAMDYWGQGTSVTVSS VL: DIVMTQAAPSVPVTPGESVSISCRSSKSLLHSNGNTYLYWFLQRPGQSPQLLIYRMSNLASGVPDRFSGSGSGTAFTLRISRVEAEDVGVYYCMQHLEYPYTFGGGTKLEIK ... -5.38%
AB4 (antibody, V domains shown, Hybridoma monoclonal; also called antibody 4; clone 4) VH: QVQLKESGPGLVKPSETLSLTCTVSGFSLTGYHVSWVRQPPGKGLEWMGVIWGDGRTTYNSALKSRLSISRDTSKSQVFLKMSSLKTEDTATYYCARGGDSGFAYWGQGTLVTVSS VL: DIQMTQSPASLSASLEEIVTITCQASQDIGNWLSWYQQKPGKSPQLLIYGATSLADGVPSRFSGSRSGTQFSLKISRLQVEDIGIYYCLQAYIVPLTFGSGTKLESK ... -4.04%

Can you share its % Blocking? I mean this binder: AB13 (antibody, V domains shown, Hybridoma monoclonal; also called antibody 13; clone 13) VH: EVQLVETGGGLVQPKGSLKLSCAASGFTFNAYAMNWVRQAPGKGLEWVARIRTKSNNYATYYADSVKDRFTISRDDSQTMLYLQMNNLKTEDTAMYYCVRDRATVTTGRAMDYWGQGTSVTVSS VL: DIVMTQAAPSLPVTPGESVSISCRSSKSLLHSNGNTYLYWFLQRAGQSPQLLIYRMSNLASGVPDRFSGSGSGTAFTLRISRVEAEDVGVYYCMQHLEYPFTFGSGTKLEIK
-0.1%
